tested_on: T1, interleukin-23 receptor (IL-23R), Q5VWK5
T1 chain: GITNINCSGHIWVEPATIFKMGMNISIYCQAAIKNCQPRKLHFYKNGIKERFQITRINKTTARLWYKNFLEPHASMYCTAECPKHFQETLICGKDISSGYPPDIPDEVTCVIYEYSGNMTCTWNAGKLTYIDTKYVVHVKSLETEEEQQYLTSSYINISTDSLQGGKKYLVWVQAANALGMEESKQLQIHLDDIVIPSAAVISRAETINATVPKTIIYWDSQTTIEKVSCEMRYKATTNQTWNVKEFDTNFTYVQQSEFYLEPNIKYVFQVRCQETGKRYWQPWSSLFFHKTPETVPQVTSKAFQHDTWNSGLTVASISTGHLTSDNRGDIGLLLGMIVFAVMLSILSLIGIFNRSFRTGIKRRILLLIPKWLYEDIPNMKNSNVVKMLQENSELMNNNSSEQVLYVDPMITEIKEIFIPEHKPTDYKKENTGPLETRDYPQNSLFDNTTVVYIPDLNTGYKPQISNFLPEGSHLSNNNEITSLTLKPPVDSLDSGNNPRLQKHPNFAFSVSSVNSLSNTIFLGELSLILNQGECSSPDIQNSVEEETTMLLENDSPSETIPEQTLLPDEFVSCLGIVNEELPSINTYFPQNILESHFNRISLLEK
test: cell-based or functional assay
Starred links: 1 amine or outer side, 2 acyl side, 3 side chain; linkers in the order of their positions; H or OH if unused. Positions of bridges follow the written chain, without caps; N, C: chain ends. Non-standard residues stand in square brackets, D forms with d. No end group written: not given here. X1 = 3‑(7-(3-acetamidophenyl)-1H-indol-3-yl)‑2‑aminopropanoic acid, CC(=O)Nc1cccc(-c2cccc3c(CC(N[*:1])C(=O)[*:2])c[nH]c23)c1; X7 = 2‑amino‑3‑(5-methylpyridin-3-yl)propanoic acid, Cc1cncc(CC(N[*:1])C(=O)[*:2])c1; 2Nal(6-OH) = N[C@@H](Cc1ccc2cc(O)ccc2c1)C(=O)O; Trp(7-Me) = Cc1cccc2c(C[C@H](N)C(=O)O)c[nH]c12; d(hLys(Me3)) = C[N+](C)(C)CCCCC[C@@H](N)C(=O)O; dLys(Me3) = C[N+](C)(C)CCCC[C@@H](N)C(=O)O; AEF = NCCOc1ccc(C[C@H](N)C(=O)O)cc1; 3Pal = N[C@@H](Cc1cccnc1)C(=O)O; Lipidated = not defined here; Pen = CC(C)(S)[C@H](N)C(=O)O; Thp = NC1(C(=O)O)CCOCC1; Ahp = NCCCCCCC(=O)O; Sar = CNCC(=O)O
In this section, each of the binders is paired with its reported PBMC pSTAT3 IC50.
property_label: PBMC pSTAT3 IC50

{"binder": "R[Pen]ET[X1]K(Ac)[Pen][2‑amino‑3‑(4-(2-aminoethoxy)phenyl)propanoic acid][2‑amino‑3‑(6-hydroxynaphthalen-2-yl)propanoic acid][Thp]EN[3Pal][Sar] (disulfide 2-7 (inferred); ends not checked) [SEQ ID NO: 157]", "property_label": "PBMC pSTAT3 IC50", "experimental_result": "< 0.01 nM"}
{"binder": "R[Pen]QTWQ[Pen][2‑amino‑3‑(4-(2-aminoethoxy)phenyl)propanoic acid][2‑amino‑3‑(6-hydroxynaphthalen-2-yl)propanoic acid][Thp]EN[Thp] (not fully specified (bridges); ends and bridges not checked) [SEQ ID NO: 430]", "property_label": "PBMC pSTAT3 IC50", "experimental_result": "> 1 nM"}
{"binder": "[Pen]NT[X1]K(Ac)[Pen][5‑(4-(2-amino-2-carboxyethyl)phenoxy)‑N,N,N‑trimethylpentan‑1‑aminium][2‑amino‑3‑(6-hydroxynaphthalen-2-yl)propanoic acid][Thp]EN[X7][Sar] (ends and bridges not checked) [SEQ ID NO: 22]", "property_label": "PBMC pSTAT3 IC50", "experimental_result": "< 0.01 nM"}
{"binder": "R[Pen]NT[X1]K(Ac)[Pen][2‑amino‑3‑(4-(2-aminoethoxy)phenyl)propanoic acid][2‑amino‑3‑(6-hydroxynaphthalen-2-yl)propanoic acid][Thp]EN[3Pal][Sar]K (disulfide 2-7 (inferred); ends not checked; also: K15: lipidated lysine, lipid not given here) [SEQ ID NO: 156]", "property_label": "PBMC pSTAT3 IC50", "experimental_result": "< 1 nM"}
{"binder": "[dLys(Me3)][Pen]NT[X1]K(Ac)[Pen][5‑(4-(2-amino-2-carboxyethyl)phenoxy)‑N,N,N‑trimethylpentan‑1‑aminium][2‑amino‑3‑(6-hydroxynaphthalen-2-yl)propanoic acid][Thp]EN[X7][Sar] (ends and bridges not checked) [SEQ ID NO: 17]", "property_label": "PBMC pSTAT3 IC50", "experimental_result": "< 0.01 nM"}
{"binder": "[Ahp][Pen]NT[Trp(7-Me)]K(Ac)[Pen][AEF][2Nal(6-OH)][Thp]EN[3Pal][Sar] (not fully specified (bridges); ends and bridges not checked) [SEQ ID NO: 417]", "property_label": "PBMC pSTAT3 IC50", "experimental_result": "< 0.01 nM"}
{"binder": "K[Pen]NT[Trp(7-Me)]K(Ac)[Pen][AEF][2Nal(6-OH)][Thp]EN[3Pal][Sar] (disulfide 2-7 (inferred); ends not checked; also: K1: lipidated lysine, lipid not given here) [SEQ ID NO: 126]", "property_label": "PBMC pSTAT3 IC50", "experimental_result": "< 1 nM"}
{"binder": "K[Pen]NT[Trp(7-Me)]K(Ac)[Pen][2‑amino‑3‑(4-(2-aminoethoxy)phenyl)propanoic acid][2‑amino‑3‑(6-hydroxynaphthalen-2-yl)propanoic acid][Thp]EN[3Pal][Sar] (disulfide 2-7 (inferred); not fully specified (residue 1); ends not checked; also: K1: lipidated lysine) [SEQ ID NO: 268]", "property_label": "PBMC pSTAT3 IC50", "experimental_result": "< 1 nM"}
{"binder": "[Pen]NT[Trp(7-Me)]K(Ac)[Pen][2‑amino‑3‑(4-(2-aminoethoxy)phenyl)propanoic acid][2‑amino‑3‑(6-hydroxynaphthalen-2-yl)propanoic acid][Thp]K(Ac)N[3Pal][Sar]K (disulfide 1-6 (inferred); not fully specified (residue 14); ends not checked; also: K14: lipidated lysine, lipid not given here) [SEQ ID NO: 256]", "property_label": "PBMC pSTAT3 IC50", "experimental_result": "< 1 nM"}
{"binder": "[Pen]ET[Trp(7-Me)]K(Lipidated)[Pen][2‑amino‑3‑(4-(2-aminoethoxy)phenyl)propanoic acid][2‑amino‑3‑(6-hydroxynaphthalen-2-yl)propanoic acid][Thp]K(Ac)N[3Pal][Sar] (disulfide 1-6 (inferred); ends not checked; also: K5: lipidated lysine, lipid not given here) [SEQ ID NO: 192]", "property_label": "PBMC pSTAT3 IC50", "experimental_result": "< 1 nM"}
{"binder": "[d(hLys(Me3))][Pen]NT[Trp(7-Me)]K(Lipidated)[Pen][2‑amino‑3‑(4-(2-aminoethoxy)phenyl)propanoic acid][2‑amino‑3‑(6-hydroxynaphthalen-2-yl)propanoic acid][Thp]K(Ac)N[3Pal][Sar] (disulfide 2-7 (inferred); ends not checked; also: K6 lipidated lysine, lipid not given here) [SEQ ID NO: 187]", "property_label": "PBMC pSTAT3 IC50", "experimental_result": "< 1 nM"}
